Source listed as BindingDB's records for patent US20240190892.

# Target desc: Plasma kallikrein (Homo sapiens, UniProt P03952)
# Sequence (P03952 20-390 limits assumed): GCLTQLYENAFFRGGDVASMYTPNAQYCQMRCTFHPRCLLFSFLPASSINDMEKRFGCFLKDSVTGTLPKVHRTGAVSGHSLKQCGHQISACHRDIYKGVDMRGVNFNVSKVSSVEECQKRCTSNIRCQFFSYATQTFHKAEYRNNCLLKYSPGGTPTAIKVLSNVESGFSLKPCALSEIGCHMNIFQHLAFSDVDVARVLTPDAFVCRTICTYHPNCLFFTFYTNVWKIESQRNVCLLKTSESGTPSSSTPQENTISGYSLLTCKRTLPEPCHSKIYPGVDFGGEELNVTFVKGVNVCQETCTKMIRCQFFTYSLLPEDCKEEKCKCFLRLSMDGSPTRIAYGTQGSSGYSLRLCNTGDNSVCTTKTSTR
# Sequence (P03952 391-638 limits assumed): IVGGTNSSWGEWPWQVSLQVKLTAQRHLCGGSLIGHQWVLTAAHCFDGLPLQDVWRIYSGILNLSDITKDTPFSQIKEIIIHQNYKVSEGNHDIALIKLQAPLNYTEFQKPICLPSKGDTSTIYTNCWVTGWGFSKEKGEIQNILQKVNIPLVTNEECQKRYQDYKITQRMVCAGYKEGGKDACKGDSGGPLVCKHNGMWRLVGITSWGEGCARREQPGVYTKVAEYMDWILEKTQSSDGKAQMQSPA
# Experiment summary: Plasma Kallikrein Assay
Measured property: pIC50
Recall that pIC50 is obtained by taking minus log10 of the concentration measured in molar.

**Query** Report the value of pIC50 obtained on Plasma kallikrein (Homo sapiens, UniProt P03952) for CC1(O)CN(c2ccc(CNC(=O)c3cncc(N4CC[C@]5(C4)OC(=O)Nc4ccc(Cl)c(F)c45)n3)cn2)C1 .
**Result** 7.55
